Reference source for all entries: PubChem BioAssay AID1224858

# protocol.summary: Confirmation assay for measurement of the activity of small molecule inhibitors on Zika virus induced Caspase-3 activity in human astrocytes
# setup.conditions: ZIKV-induced caspase-3/7 luminescence, 6 h; series mostly up to 46.1 µM
Records with an inconclusive call do not appear. Active and inactive are the calls of the source. Calls come from the whole dose curve; as a rule, active = well fitted inhibition curve with a large enough effect; inconclusive = small, poorly fitted or top-dose-only effect; inactive = no such curve, though single readings can be large or run the other way.
Response enum: active, inactive

These recorded examples may help you get a feel for the data.
Recorded call for "c1ccc(CCNc2nc(-c3ccccc3)cs2)cc1" ? active

Assay outcome for "Nc1cc(C(F)(F)F)ccc1S" : what was it? inactive

Short answer needed: outcome of this test for "O=S(=O)(O)CCSSCCS(=O)(=O)O" ? inactive

Call for entry "O=C(O)c1cc([N+](=O)[O-])ccc1NCCCc1ccccc1" : active

What did the test return for "O=C(O)c1ccccc1Nc1cccc(C(F)(F)F)c1" ? active

Further cases:
Which outcome did this test record for the molecule "Nc1ccc(-c2ccc3ccccc3n2)cc1" ? active

# lookup: test call for "CC(=C(CCOC(=O)C(C)C)SSC(CCOC(=O)C(C)C)=C(C)N(C=O)Cc1cnc(C)nc1N)N(C=O)Cc1cnc(C)nc1N" inactive

Could you please tell me the result logged for "O=C1c2ccccc2-[n+]2ccc3c([nH]c4ccccc43)c21" in this assay? active

====

# protocol.summary: Confirmation assay for measurement of the activity of small molecule inhibitors on Zika virus induced Caspase-3 activity in human astrocytes
# setup.conditions: ZIKV-induced caspase-3/7 luminescence, 6 h; series mostly up to 46.1 µM
# From the text: National Center for Advancing Translational Sciences [NCATS] […] This cell-based caspase-3 activity assay measures the increased caspase-3 activity in the human astrocytes after a 6-hour Zika virus infection with a luminescence readout. A decrease in the luminescence signal in this assay by small molecule treatment indicates an inhibitory effect of that small molecule on the Zika virus induced caspase-3 activity that may correlate with its effect on reduction of Zika virus caused cell death. […]
Results filed as inconclusive are left out. Activity calls are given as the source filed them. Calls follow the shape of the dose curve; as a rule, active = well fitted inhibition curve with a large enough effect; inconclusive = small, poorly fitted or top-dose-only effect; inactive = no such curve, though single readings can be large or run the other way.
Can you answer with just one of these options? t (active), f (inactive)

Entry "COc1cccc(-c2ccc(NC(=O)C3=C(C(=O)O)CCC3)c(F)c2)c1" : call = ? t

More entries:
Recorded call for "O=C(Oc1ccccc1)c1cccc(C(=O)Oc2ccccc2)c1" ? t

Dear colleague, could you share the recorded outcome for "Cc1cc(O)c2c(c1)C(=O)c1cc(O)cc(O)c1C2=O" when you have a moment? t

Call for entry "CC(=Cc1ccccc1)C=C1SC(=S)N(CC(=O)O)C1=O" : t

What did the test return for "CC(=O)Oc1ccccc1C(=O)Nc1ncc([N+](=O)[O-])s1" ? t

# fetch the recorded call for "CCCCCCCCCCCC(=O)[O][Sn]([CH2]CCC)([CH2]CCC)[O]C(=O)CCCCCCCCCCC" here f

In this assay, the call recorded for COc1ccc(CC2=NN3C([C@@H](CCc4ccccc4)[C@@H](C)O)=NC(C)C3C(=O)N2)cc1OC (stereo not given in full) was what? f

# lookup: test call for "O=S(=O)(O)c1ccc2nc(-c3ccccc3)[nH]c2c1" t

====

# protocol.summary: Confirmation assay for measurement of the activity of small molecule inhibitors on Zika virus induced Caspase-3 activity in human astrocytes
# setup.conditions: ZIKV-induced caspase-3/7 luminescence, 6 h; series mostly up to 46.1 µM
Inconclusive results are not listed. The source made the active and inactive calls. The call rests on the fitted dose curve; in most records, active means well fitted inhibition curve with a large enough effect; inconclusive means small, poorly fitted or top-dose-only effect; inactive means no such curve, though single readings can be large or run the other way.
Pick one: active, inactive

Answered examples (5):
Identify the outcome logged in this assay for the compound shown: "CCCCCCCC/C=C/C(=O)O" inactive

Dear colleague, could you share the recorded outcome for "Cc1nc(N)sc1-c1ccnc(Nc2ccc(N3CCOCC3)cc2)n1" when you have a moment? inactive

Recorded call for "O=C(/C=C/c1ccc(O)cc1)c1ccc(O)cc1O" ? active

I would be grateful if you could indicate the recorded call for "O=C1NC(=O)C(=Cc2ccc(-c3ccc(F)cc3)o2)S1" . active

Tell me the assay call for O[C@@H](COc1cccc2ncccc12)CN1CCN(C2c3ccccc3[C@@H]3[C@H](c4ccccc42)C3(F)F)CC1 (some centres not stated) please. inactive

Here is another compound to look at.
Write down the call the test reported for this compound. Item: "O=C(Nc1ccc(C(=O)O)c(O)c1)c1ccccc1" active

====

# protocol.summary: Confirmation assay for measurement of the activity of small molecule inhibitors on Zika virus induced Caspase-3 activity in human astrocytes
# setup.conditions: ZIKV-induced caspase-3/7 luminescence, 6 h; series mostly up to 46.1 µM
Inconclusive results are not listed. Calls of active or inactive are those of the source. The call rests on the fitted dose curve; in most records, active means well fitted inhibition curve with a large enough effect; inconclusive means small, poorly fitted or top-dose-only effect; inactive means no such curve, though single readings can be large or run the other way.
Bench note: report the call from active, inactive

GET /call?item= "Cc1c(NC(=O)c2ccc(C(C)(C)C)cc2)cccc1-c1cn(C)c(=O)c(Nc2ccc(C(=O)N3CCOCC3)cc2)n1" returns the recorded outcome of this test. inactive

Just curious, what result did "COc1ccc(NC(=O)/C=C/c2ccc(Cl)cc2)cc1" get here? active

====

# protocol.summary: Confirmation assay for measurement of the activity of small molecule inhibitors on Zika virus induced Caspase-3 activity in human astrocytes
# setup.conditions: ZIKV-induced caspase-3/7 luminescence, 6 h; series mostly up to 46.1 µM
Results filed as inconclusive are left out. The source made the active and inactive calls. Calls come from the whole dose curve; as a rule, active = well fitted inhibition curve with a large enough effect; inconclusive = small, poorly fitted or top-dose-only effect; inactive = no such curve, though single readings can be large or run the other way.
readout.type: Potency

In the examples that follow, each entry is paired with its recorded Potency.
Requested read-out: Potency. Entry: "Nc1ccc(O)c(C(=O)O)c1" inactive

Dear colleague, I am looking for the recorded Potency of the following molecule: "CC1=C(CO)C(=O)O[C@@H]([C@@H](C)[C@H]2CC[C@H]3[C@@H]4C[C@H]5O[C@]56[C@@H](O)C=CC(=O)[C@]6(C)[C@@H]4CC[C@]23C)C1" inactive

Endpoint output: Potency of "CC1(C)Cc2c(sc(NC(=S)NC(=O)c3ccccc3)c2C(=O)O)CO1" . Value? inactive

If you can, please state the reported Potency value of "CN1CC(=O)N/C1=N/C(=O)Nc1cccc(Cl)c1" . 10.9 µM (active)

More entries:
Suppose we examine the molecule "COCCn1c2c([n+](Cc3cnccn3)c1C)C(=O)c1ccccc1C2=O" ; what Potency value has been reported? 5.48 µM (active)

Given the molecule "Cc1ccc(O)c(N=Nc2ccccc2)n1" , what is its reported Potency? 1.73 µM (active)

Please report the recorded Potency for "CC(C)OC(=O)CCCC=CC[C@@H]1[C@H](C=C[C@@H](O)COc2cccc(C(F)(F)F)c2)[C@H](O)C[C@@H]1O" . inactive

# input molecule: "CN(C)c1ccc(/C=C2\C(=O)Nc3ccccc32)cc1" ; wanted: its Potency 8.69 µM (active)

Record request: Potency value, item "Nc1ccc2c(c1)CN1C(=O)c3ccccc3C1=N2" 2.13 µM (active)

Dear colleague, I am looking for the recorded Potency of the following molecule: "CCCC(=O)OC[C@@H](OC(=O)CCC)[C@@H](OC(=O)CCC)[C@H](Cn1c2nc(=O)[nH]c(=O)c-2nc2cc(C)c(C)cc21)OC(=O)CCC" inactive

// returns reported Potency for input "Cc1c(N)c(=O)n(-c2ccccc2)n1C" inactive

Recorded Potency of Cc1ccc2c(n1)Oc1ccc(C(C)C(=O)OCC(=O)N(C)C)cc1C2 (stereo unspecified) , please. 19.5 µM (active)

Bench note: what Potency did CCC(C(=O)O)c1ccc(N2Cc3ccccc3C2=O)cc1 (stereo unspecified) show? 6.9 µM (active)

May I ask what Potency has been recorded for "Cc1cccc(/C=C/c2ccccc2)n1" ? 10.9 µM (active)

Look up Potency: "C/C(=N\O)c1ccc(OCC(=O)N2CCCCC2)cc1" 9.75 µM (active)

I am curious: what Potency value has been reported for "CC(C)Oc1ccc2c(=O)c(-c3ccccc3)coc2c1" ? 10.9 µM (active)

====

# protocol.summary: Confirmation assay for measurement of the activity of small molecule inhibitors on Zika virus induced Caspase-3 activity in human astrocytes
# setup.conditions: ZIKV-induced caspase-3/7 luminescence, 6 h; series mostly up to 46.1 µM
# Description: National Center for Advancing Translational Sciences [NCATS] […] This cell-based caspase-3 activity assay measures the increased caspase-3 activity in the human astrocytes after a 6-hour Zika virus infection with a luminescence readout. A decrease in the luminescence signal in this assay by small molecule treatment indicates an inhibitory effect of that small molecule on the Zika virus induced caspase-3 activity that may correlate with its effect on reduction of Zika virus caused cell death. […]
Records with an inconclusive call do not appear. Calls of active or inactive are those of the source. The call rests on the fitted dose curve; in most records, active means well fitted inhibition curve with a large enough effect; inconclusive means small, poorly fitted or top-dose-only effect; inactive means no such curve, though single readings can be large or run the other way.
Please answer using one outcome listed in label 1 = active, label 0 = inactive

Check out these entries, answers already filled in.
Which outcome was assigned to "O=c1c2ccccc2nc2n1CCc1c-2[nH]c2ccccc12" in this test? label 1

I'd appreciate the recorded outcome for "COc1ccc(/C=C/C(=O)Nc2ccccc2C(=O)O)cc1OC" from this test. label 1

Outcome? "C[C@@H](N)c1ccc(C(=O)Nc2ccnc3[nH]ccc23)cc1" label 0

---
Please share the test call associated with "N#C/C(=C\c1ccc(O)c(O)c1)C(=O)Nc1ccccc1" . label 1

Test call for this compound, please: "NC(N)=NN=C(/C=C/c1ccc([N+](=O)[O-])o1)/C=C/c1ccc([N+](=O)[O-])o1" label 0

Can you look up the reported call for "O=C(Nc1ncc([N+](=O)[O-])s1)c1cccs1" for me? label 1

Please indicate how the test categorized "c1ccc2[nH]c(-c3cscn3)nc2c1" . label 1

So what was the verdict on "O=C(O)CCC(=O)c1ccc(-c2ccccc2)cc1" in this test? label 1

GET /call?item= "Cc1cccc(C#Cc2ccccc2)n1" returns the recorded outcome of this test. label 1

Hi team, can someone confirm the assay call for "O=C(Nc1ccc([N+](=O)[O-])cc1Cl)c1cc(Cl)ccc1O" ? label 1

What is the recorded call for this compound in the test? "C[C@@H]1CCN(C(=O)CC#N)C[C@H]1N(C)c1ncnc2[nH]ccc12" label 0

What did the test return for "O=c1cc(-c2ccccc2)oc2cc(O)c(O)c(O)c12" ? label 0

// return assay outcome for "Nc1ncnc2c1ncn2[C@@H]1O[C@@H](CO)[C@H](O)[C@H]1O" label 0

What was the test verdict on "O=C(/C=C/c1ccccc1)NCCO" ? label 0

Write down the call the test reported for this compound. Item: "Cc1c(C(=O)O)c(O)cc2c1C(=O)c1c(O)c([C@@H]3O[C@H](CO)[C@@H](O)[C@H](O)[C@H]3O)c(O)c(O)c1C2=O" label 0

Could you check what this test reported for "O=C(Nc1cc2cc[nH]c2cn1)c1ccccc1" ? label 1

Lab log entry: CC(C(=O)O)c1ccc(C(=O)c2ccccc2)s1 (stereo not given) — outcome as called in the assay? label 1

Hi team, can someone confirm the assay call for "O=C(Nc1ccc(OC(F)(F)F)cc1)c1sccc1NCc1ccnc2ccccc12" ? label 1

Hi, sorry to bother you, what did the test record for CNC1[C@H](O)C(O[C@@H]2C(O)C(O[C@H]3O[C@H]([C@@H](C)NC)CC[C@H]3N)[C@@H](N)C[C@H]2N)OC[C@]1(C)O (stereo not given in full) ? label 0
